pIC50 for the protein given by its sequence, merged from several publications.
Protein target, amino acids: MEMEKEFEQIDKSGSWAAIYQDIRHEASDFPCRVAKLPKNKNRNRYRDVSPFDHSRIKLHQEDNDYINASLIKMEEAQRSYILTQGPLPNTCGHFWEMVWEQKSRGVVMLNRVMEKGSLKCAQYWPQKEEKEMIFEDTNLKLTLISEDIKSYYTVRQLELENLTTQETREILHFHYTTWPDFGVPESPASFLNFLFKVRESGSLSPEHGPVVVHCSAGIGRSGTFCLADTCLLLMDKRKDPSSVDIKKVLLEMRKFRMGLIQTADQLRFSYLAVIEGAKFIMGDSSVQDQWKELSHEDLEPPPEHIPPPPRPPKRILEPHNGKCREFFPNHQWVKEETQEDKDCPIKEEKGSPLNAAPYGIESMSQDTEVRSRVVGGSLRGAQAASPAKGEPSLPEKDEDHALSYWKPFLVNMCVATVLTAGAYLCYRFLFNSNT
Numbers only, as −log10 of the molar value.

[[record]]
molecule = "O=C1CC(c2ccc(CC(Cc3ccc4cc(Br)c(C(F)(F)P(=O)(O)O)cc4c3)(C(=O)c3ccccc3)n3nnc4ccccc43)cc2F)S(=O)(=O)N1 (stereo not drawn)"
endpoint_value = 6.04

[[record]]
molecule = "COc1cc(C=O)ccc1C1=NOC(n2ccnc2)C1 (stereo not drawn)"
endpoint_value = 4.06

[[record]]
molecule = "COc1ccc(C2CC(c3ccc4c(c3OC)C=CC(C)(C)O4)=NO2)cc1 (stereo not drawn)"
endpoint_value = 4.04


Each molecule below has a recorded value; state its pIC50.
1. COc1cc(C=O)ccc1C1=NOC(c2ccccc2)C1 (stereo not drawn)
2. O=C(c1ccccc1)C(Cc1ccc(C(F)(F)P(=O)(O)O)cc1)(Cc1ccc2cc(Br)c(C(F)(F)P(=O)(O)O)cc2c1)n1nnc2ccccc21 (stereo not drawn)
3. O=C1CC(c2ccccc2)Oc2cc(O)cc(O)c21 (stereo not drawn)
4. COc1cc(/C=C2\SC(=O)NC2=O)ccc1OS(=O)(=O)c1c(C)cc(C)cc1C
5. O=C(c1ccccc1)C(Cc1ccc(C(F)(F)P(=O)(O)O)c(Br)c1)(Cc1ccc2cc(Br)c(C(F)(F)P(=O)(O)O)cc2n1)n1nnc2ccccc21 (stereo not drawn)

Data returned:
[4.16, 7.34, 4.43, 4.57, 7.68]
